System: F1*sub RNA substrate (template-directed ligation)
Assay Summary: fraction ligated after 30 min (ligated reads / total reads); higher = more ligase activity; sequences stand for … in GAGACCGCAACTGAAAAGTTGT…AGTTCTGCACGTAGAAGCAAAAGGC
Details: 42 °C
Measured Metric: fraction ligated
Numbers only.

> print(dat)
                     macromolecule.sequence  result.number
1   TATACTGTCGTAAGACACTTTGGTGGGTTGA [3d791]         0.0244
2  TATCACTTGTCGTAAACACTTTGGAGGTTGA [3d2098]         0.0433
3   TATACTTGTGAAGACACTTTGGATGGGTTGA [3d829]          0.756
4   ATCACTTGTCGTAAGACACTTTGGATGGTTGA [2d22]           0.76

Next, consider the following sequence.
The value of fraction ligated measured for the sequence TATCATTGTCTAAGACATTTGGATGGGTTGA [3d1193] turned out to be 0.778

###

System: F1*sub RNA substrate (template-directed ligation)
Assay Summary: fraction ligated after 30 min (ligated reads / total reads); higher = more ligase activity; sequences stand for … in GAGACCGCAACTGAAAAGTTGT…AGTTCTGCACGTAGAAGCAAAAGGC
Details: 42 °C
Measured Metric: fraction ligated
Numbers only.

Past entries and their recorded results:
> print(dat)
                     macromolecule.sequence  result.number
1   TACACTTGTCGAAGACACTTTGGATGGGTTGA [2d55]          0.603
2  TATCACTTGTCGAAGACACTTTGGATGGGTT [3d1979]          0.763
3  TATCACTTGTCAAGACACTTTGATGGGTTGA [3d1817]          0.715

Dear reader, for each entry below, please note its fraction ligated.
1. TATCCTTGCGTAAGACCTTTGGATGGGTTGA [3d991]
2. TATCACTTGTGTAAGACATTGGATGGGTTGA [3d1779]

[out]
0.792
0.848

###

System: F1*sub RNA substrate (template-directed ligation)
Assay Summary: fraction ligated after 30 min (ligated reads / total reads); higher = more ligase activity; sequences stand for … in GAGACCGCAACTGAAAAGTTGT…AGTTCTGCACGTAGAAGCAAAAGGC
Details: 42 °C
Classification field: enter 1.0 for fraction ligated values not below 0.7, 0.0 for values below it.

> print(dat)
                     macromolecule.sequence  category
1   TACCTTGTCGTAAGACCTTTGGATGGGTTGA [3d538]       1.0
2  TATCACTGTCGTAAGAACTTTGATGGGTTGA [3d1420]       0.0
3   TATACTTGTCTAAGCACTTTGGATGGGTTGA [3d846]       1.0
4   TTCACTTGTCGTAAGACACTTTGGATGGTTA [3d504]       0.0
5  TATCATTGTCGTAAGACACTTTGGAGGTTGA [3d1286]       0.0
6  TATCATTGTCGTAAACATTTGGATGGGTTGA [3d1229]       1.0
7   ATCACTTGCGTAAGACCTTTGGATGGGTTGA [3d147]       1.0
8   TATACTTTCTAAGACACTTTGGATGGGTTGA [3d797]       0.0

[in] Threshold query (fraction ligated >= 0.7) on TATCATTGTCGAAGACACTTTGATGGGTTGA [3d1208]
[out] 1.0

[in] Please check the record TATCATTGTCGTAAGACACTTTGGATGGGTTG [2d127] and state if its fraction ligated is at or above 0.7.
[out] 1.0

[in] Hi team, for TATCACGTCGTAAGACACTTTGGATGGTTGA [3d1308] , is the recorded fraction ligated at or above 0.7?
[out] 0.0

[in] Determine whether this sequence has fraction ligated no lower than 0.7: ATCATTGTCGTAAGACACTTTGGATGGGTTA [3d103]
[out] 0.0

###

Test system: F1*sub RNA substrate (template-directed ligation)
Assay Summary: fraction ligated after 30 min (ligated reads / total reads); higher = more ligase activity; sequences stand for … in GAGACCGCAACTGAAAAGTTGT…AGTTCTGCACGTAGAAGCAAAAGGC
Details: 42 °C
Bucketed by reported fraction ligated, buckets being low range = under 0.07, mid range = from 0.07 up to 0.8, high range = 0.8 and over

> print(dat)
                     macromolecule.sequence   category
1   TATACTTGTCGAAGACACTTTGGAGGGTTGA [3d866]  low range
2   ATCACTTGTCGTAGCACTTTGGATGGGTTGA [3d200]  mid range
3   TACACTTGCGTAAGACATTTGGATGGGTTGA [3d609]  mid range
4   TTCACTTGTCGTAAGACACTTTGGAGGTTGA [3d501]  low range
5  TATCACTTGTCTAAACACTTTGGATGGTTGA [3d1843]  mid range
6  TATCACTTGTCGTGAACTTTGGATGGGTTGA [3d1983]  mid range

[in] Textbook exercise: identify the category of the sequence given here, TATCATTGTGTAAGCACTTTGGATGGGTTGA [3d1176] , according to its measured value.
[out] high range

[in] Hey, which category is TACACTGTCGTAAGACACTTTGGTGGGTTGA [3d580] in, do you know?
[out] mid range

[in] Kindly state the category for this sequence: TATCACTTGTCGTAGACACTTTGGTGGGTTA [3d2050]
[out] low range

[in] Assign a bin to TATCACTTGTCGTAAGACACTTTGGATGGGTT [2d298]
[out] mid range

[in] Sort into band: TACACTTGTCGTAAGACACTTGATGGGTTGA [3d715]
[out] low range

[in] Lab note: sort TACACTTGTCGTAAGACACTTGGATGGGTTGA [2d62] into the matching fraction ligated band.
[out] mid range

[in] Place this sequence in its band: TATCACTTGTGAAGACATTTGGATGGGTTGA [3d1723]
[out] high range

[in] Form: Item = TATCACTGTGTAAGCACTTTGGATGGGTTGA [3d1347] ; Class = ?
[out] high range

[in] Which category fits this record: TATCCTTGTCGTAAGACACTTTGGAGGGTTG [3d1116]
[out] low range

[in] In plain terms, what class is TATCACTTTCGTAAGACACTTTGTGGGTTGA [3d1569] ?
[out] low range

###

Test system: F1*sub RNA substrate (template-directed ligation)
Assay Summary: fraction ligated after 30 min (ligated reads / total reads); higher = more ligase activity; sequences stand for … in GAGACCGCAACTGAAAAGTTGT…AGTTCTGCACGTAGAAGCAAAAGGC
Details: 42 °C
Measured Metric: fraction ligated
Answers are plain numbers.

> print(dat)
                     macromolecule.sequence   measured.metric  result.number
1   TACACTTGTCGTAGACACTTGGATGGGTTGA [3d665]  fraction ligated          0.101
2  TATCACTTGTCGTAACACTTGGATGGGTTGA [3d1996]  fraction ligated          0.773
3  TATCACTGTGTAAGACACTTTGGATGGGTTA [3d1356]  fraction ligated          0.823
4  TATCACTTGTCGTAAGACACTTTGGATGGTT [3d2281]  fraction ligated          0.024
5  TATCACTTGTCGGACACTTTGGATGGGTTGA [3d1902]  fraction ligated          0.785

Batch lookup, fraction ligated per entry.
1. TATCACTTGTGTAAGACATTTGGATGGGTTG [3d1785]
2. TATCACTTGTCGAAACACTTTGGATGGGTTG [3d1924]

[out]
0.838
0.817

Give me fraction ligated for each of these sequences, listed below.
1. TATCCTTGTCGTAAGAACTTTGATGGGTTGA [3d1077]
2. TATCACGTCGTAAGACACTTTGGATGGGTTG [3d1310]
3. TATCACTGTCGTAGACACTTTGGATGGGTTG [3d1397]
4. TATCATTGTCGTAGACACTTGGATGGGTTGA [3d1220]
5. TATCACTTGTCGTAAAACTTTGGATGGGTTG [3d2066]

[out]
1: 0.8; 2: 0.782; 3: 0.811; 4: 0.752; 5: 0.791

Kindly give each listed record's fraction ligated.
1. TATCACTTGTCGAAGACCTTTGGATGGTTGA [3d1947]
2. TATCCTTGTCGTAGACACTTTGGATGGGTTA [3d1053]
3. TATCACTTGTCGTAAACTTTGGATGGGTTGA [3d1993]
4. TACACTTGTCTAAGACACTTTGGATGGGTTG [3d645]
5. TATCCTTGCTAAGACACTTTGGATGGGTTGA [3d985]
6. ATCACTTGTCGTAAGACACTTTGGAGGGTTGA [2d21]

[out]
[0.299, 0.398, 0.804, 0.595, 0.764, 0.189]
